- Tested on: DU-145
- EXPERIMENT: SRB colorimetric assay of cell growth and viability, DU-145
- Format: cell-based, human
- ASSAY_SETUP: 48 hours exposure
Where a SMILES comes first, the peptide text is derived from it. Bridges are numbered along the chain shown (N, C = ends). [ ]: non-standard residue; d: D form. The star is where a group is joined. d(aIle) = CC[C@H](C)[C@@H](N)C(=O)O; d(aThr) = C[C@@H](O)[C@@H](N)C(=O)O; Hexanoyl(5-Me) = CC(C)CCCC(=O)*; Orn = NCCC[C@H](N)C(=O)O; Dhb = C/C=C(\N)C(=O)O
REPORTED_METRIC: LC50 (concentration causing 50% net cell kill) (µM)
State just the number; it will be interpreted in µM.

Report LC50 (concentration causing 50% net cell kill) for C/C=C1\NC(=O)[C@H](Cc2ccccc2)NC(=O)[C@@H](C(C)C)NC(=O)[C@@H]([C@@H](C)CC)NC(=O)[C@H](NC(=O)[C@H](NC(=O)[C@H](CCCN)NC(=O)[C@H]2CCCN2C(=O)[C@H](NC(=O)[C@H](CCCN)NC(=O)[C@@H](NC(=O)[C@H](NC(=O)CCCC(C)C)C(C)C)[C@@H](C)O)C(C)C)[C@@H](C)CC)[C@@H](C)OC(=O)[C@H](C(C)C)NC1=O [Compound 49, [Orn^11]-KF] ({Hexanoyl(5-Me)}-[dV]T[Orn][dV][dP][Orn][d(aIle)][d(aThr)][d(aIle)][dV]F[Dhb]V; ester 8-C) please. 5.75
